Just for reference, PubChem BioAssay AID485273 is where these values come from.

Target: Ubiquitin-conjugating enzyme E2 N (Homo sapiens) (UniProt P61088)
Sequence (P61088 whole entry, looked up): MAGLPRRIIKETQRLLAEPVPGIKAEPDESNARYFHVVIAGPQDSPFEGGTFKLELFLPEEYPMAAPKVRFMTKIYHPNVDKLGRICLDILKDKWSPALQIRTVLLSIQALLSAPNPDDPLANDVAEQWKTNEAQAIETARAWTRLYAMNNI
Assay: UBC13 polyubiquitin chain formation inhibitors, primary screen, biochemical, TR-FRET, uHTS (AID 485273)
Conditions: at 20 µM, hits give high values
Hit rate of the full screen: of about 330,000 compounds, about 1,500 (0.45%) were called active. The sample holds actives, similar compounds and a random draw of the others, so the mix is not that of the screen.
MEASURE: inhibition (%)
Answers are plain numbers, in %.

The following molecules have reported results that may help.
1. CC[n+]1cc(C)ccc1/C=C/c1ccc(N(C)C)cc1; -286
2. CCC(C(=O)NC1CCCC1)N(C(=O)c1snc(C(N)=O)c1N)c1ccc2c(c1)OCCO2 (centres undefined); 86.7
3. COc1ccc(C(CNC(=O)c2ccc(S(=O)(=O)Nc3ccccc3F)cc2)N(C)C)cc1 (centres undefined); 94.8
4. CCCc1cc(=S)n2c([nH]c3ccccc32)c1C#N; -11.8
5. OCC1(CCOc2ccccc2)CCN(Cc2cn[nH]c2-c2ccccc2)CC1; 2.5
6. COc1ccc(C(C(=O)NC2CCCCC2)N(C(=O)c2snc(C(N)=O)c2N)c2ccccc2OC)cc1 (centres undefined); 8.5
7. COc1ccc(C(=O)N(C)CC(O)c2ccccc2)cc1OC1CCN(C(C)=O)CC1 (centres undefined); -0.4
8. COCc1cc(=O)[nH]c2cc(NC(=O)C(F)(F)F)c(C)cc12; 8.5
9. CC(C)Cc1oc(C(=O)O)cc1CN; -1.6
10. CC(CC(=O)N1CCN(c2ccccc2)CC1)c1ccccc1 (centres undefined); 9.2

Can you give me inhibition for all of these, one by one?
1. CCOCCCNC(=O)C(=O)NCCCOCC
2. CCC1CCC/C1=N\NC(=O)c1ccc(Cl)cc1 (centres undefined)
3. COc1ccc(C(CNC(=O)c2ccc(S(=O)(=O)Nc3ccccc3C)cc2)N2CCOCC2)cc1 (centres undefined)
4. CCCN(C(=O)CSc1nnc(N)s1)c1c(N)n(Cc2ccccc2)c(=O)[nH]c1=O
5. Cc1c(CN2CCC(CO)(CCOc3ccccc3)CC2)[nH]c2ccc(Cl)cc12
6. O=C1c2cccc3cccc(c23)C(=O)N1CCCCCc1n[nH]c(=S)o1
7. O=S(=O)(NC1CCCC1)c1ccc(-n2cnnn2)cc1
8. CC(OC(=O)CN1C(=O)C2CCCCC2C1=O)C(=O)Nc1ncc(Cl)cc1Cl (centres undefined)

Given back:
-2.5
6.6
-1.4
0.1
72.1
-1.2
0.2
-6.5

Can you give me inhibition for all of these, one by one?
1. COc1ccc(C(CNC(=O)c2cccc(S(=O)(=O)Nc3ccccc3Cl)c2)N2CCOCC2)cc1 (centres undefined)
2. CCCCNc1nc2c(c(=O)n(C)c(=O)n2C)n1Cc1cccc(OC)c1
3. Cc1ccccc1C(CC(=O)c1cccs1)C(C#N)C#N (centres undefined)

Given back:
[2.8, 21.5, 4.5]

Can you give me inhibition for all of these, one by one?
1. O=C(CCCOc1ccccc1)NCc1ccco1
2. O=C(c1ccccc1)c1ccc(C(=O)N2CCN(c3ccccc3)CC2)cc1
3. CC(=O)Nc1cccc(NC(=O)c2ccc3c(c2)CCN3S(C)(=O)=O)c1
4. CC1CCCN(C(C(=O)Nc2ccc(C(C)C)cc2)c2ccc3c(c2)OCO3)C1 (centres undefined)

Given back:
[6.4, 4.4, -2.7, 9]

Can you give me inhibition for all of these, one by one?
1. COc1cccc(-c2ccc(SCC(=O)N3CCN(c4ccccc4)CC3)nn2)c1
2. Cc1cccc2c(=O)n3c(nc12)CCCCC3

Given back:
-10.5
6.4

====

Biological target: Ubiquitin-conjugating enzyme E2 N (Homo sapiens)
Assay: UBC13 polyubiquitin chain formation inhibitors, primary screen, biochemical, TR-FRET, uHTS (AID 485273)
Details: at 20 µM
About 1,500 (0.45%) of roughly 330,000 compounds were called active. Rule as the data show it: active = inhibition above about 45% (passing the limit was not always enough); inconclusive = no clear call, values can overlap the other calls. Only a selection was taken, and actives are over-represented in it overall.
Form entry, call: pick from y = active, n = inactive

1. COc1ccc(CNC(=O)C2CCN(S(=O)(=O)c3ccc(SC)cc3)CC2)cc1; n

Asked: In this assay, the call recorded for `CN1CCN(CCCNC(=O)c2ccc(/C=C3\Oc4ccccc4N(Cc4ccc(Cl)cc4)C3=O)cc2)CC1` was what?
Given back: y

Asked: In this assay, the call recorded for `COc1ccccc1-c1sc2ccccc2c1-c1ccc(C(C)=O)cc1` was what?
Given back: y

====

Target: Ubiquitin-conjugating enzyme E2 N (Homo sapiens) (UniProt P61088)
Experiment: UBC13 polyubiquitin chain formation inhibitors, primary screen, biochemical, TR-FRET, uHTS (AID 485273)
Settings: at 20 µM, hits give high values
Hit rate of the full screen: of about 330,000 compounds, about 1,500 (0.45%) were called active. For the sample, actives were picked, then their nearest neighbours and some compounds at random.
MEASURE: inhibition

1) O=C(Nc1nnc(-c2ccccc2)o1)c1cc(-c2cccs2)nc2ccccc12; -31.4% (inactive)
2) COc1cccc(NC(=O)CN(C)C(=O)c2cc(C3CC3)nn2-c2ccccc2)c1; -2.2% (inactive)
3) CC(=O)NCCNC(=O)c1cc(-c2cccc3ccccc23)nc2ccccc12; 8.4% (inactive)
4) CCCCN(C)CCCNC(=O)c1cc(-c2cccs2)nc2ccccc12; 48.3% (active)
5) Cc1cc(C)c(NC(=O)C[N+](C)(C)CC(O)COc2cccc3ccccc23)c(C)c1 (stereo unspecified); 45.4% (active)

Please turn your attention to the following entry.
inhibition reported for this compound O=C(OCC1O[C@@H](OC(=O)c2cc(O)c(O)c(O)c2)[C@@H](OC(=O)c2cc(O)c(O)c(O)c2)[C@@H](OC(=O)c2cc(O)c(O)c(O)c2)[C@@H]1OC(=O)c1cc(O)c(O)c(O)c1)c1cc(O)c(O)c(O)c1 (stereo partly specified) : 138% (active)

====

Record form. Attribute: inhibition. Fill in for each entry.
Biological target: Ubiquitin-conjugating enzyme E2 N (Homo sapiens) (UniProt P61088)
Assay: UBC13 polyubiquitin chain formation inhibitors, primary screen, biochemical, TR-FRET, uHTS (AID 485273)
Conditions: at 20 µM, hits give high values
About 1,500 (0.45%) of roughly 330,000 compounds were called active. What follows is part of a selection rich in actives, with near analogues and random picks from the rest.
Answers are plain numbers, in %.

1. Cc1ccc(N2C(=O)N3[C@@H]4c5ccccc5OC[C@@H]4[C@@H](c4ccccc4)[C@@]3(C)C2=O)cc1; 6.8

Can you give me inhibition for all of these, one by one?
1. O=C1C(=O)N(c2ccccc2)c2ccccc21
2. CC[C@@H](C)[C@@H]1CN([C@@H](C)CN2CCC[C@H]2CN2C(N)=NC[C@H]2C(C)C)C(=N)N1CCc1ccc(Cl)c(Cl)c1
3. Cc1cc(C)c(SCCc2ccncc2)c(C)c1
4. CCOC(=O)c1c(S(=O)(=O)Nc2cccc(Cl)c2)c(C)n(C)c1C

Given back:
-10.7
50.1
5.6
-2.9

====

Molecular target: Ubiquitin-conjugating enzyme E2 N (Homo sapiens)
Assay: UBC13 polyubiquitin chain formation inhibitors, primary screen, biochemical, TR-FRET, uHTS (AID 485273)
Conditions: at 20 µM, hits give high values
The campaign covered roughly 330,000 compounds. About 1,500 (0.45%) were called active. For the sample, actives were picked, then their nearest neighbours and some compounds at random.
Record form. Attribute: inhibition. Fill in for each entry.
Numbers only, in %.

The following molecules have reported results that may help.
1. O=C(Nc1cccc([N+](=O)[O-])c1)Nn1cnnc1; -5.5
2. O=C(Cc1ccc(-n2c(=O)[nH]c3ccccc3c2=O)cc1)N1CCN(c2cccc(Cl)c2)CC1; -5.1
3. O=C(NC(=O)c1cc(OCC(F)(F)F)ccc1OCC(F)(F)F)Nc1ccccc1; 2.9
4. N[C@@H](Cc1ccccc1)C(=O)N1CCC(C(=O)NCC(=O)Nc2ccc(F)cc2)CC1; -7.5
5. CN(C)CCCN(C(=O)c1ccc(S(=O)(=O)N2CCCCCC2)cc1)c1nc2ccc(Br)cc2s1; 67

Can you give me inhibition for all of these, one by one?
1. COc1ccccc1C(=O)N1C(CC(=O)Nc2ccccc2C)C(=O)NC2CCCCC21 (stereo not given)
2. CC(C)(CCl)C(=O)Nc1ccc(Sc2ccc(F)cc2)cc1
3. CCOc1ccc2nc(N(CCCN(C)C)C(=O)c3ccc(C(=O)c4ccccc4)cc3)sc2c1
4. N#CCCn1ncc2ccccc21
5. COc1ccc(/C=N\NC(=O)c2sc(N)nc2C)cc1OC
6. O=C(O)CCn1c(SCc2cc(=O)n3ccccc3n2)nc2ccsc2c1=O
7. O=C(O)CC1(CC(=O)Nc2cccc(C(F)(F)F)c2)CCCC1

Given back:
-2.3
7.4
87.8
0.9
102
-6.3
-1.1

Can you give me inhibition for all of these, one by one?
1. Cc1cc(C)n(CC(O)COc2ccc(C(C)(C)C)cc2)n1 (stereo not given)
2. CN(C)c1nc(N)nc(Cn2nnc(-c3ccc(C(F)(F)F)cc3)n2)n1
3. Cn1cc(S(=O)(=O)Nc2ccc(Cl)cc2Cl)c(=O)n(C)c1=O
4. CCc1ccc2nc(N(CCCN(C)C)C(=O)c3ccc4c(c3)OCCO4)sc2c1
5. CCC1(CC)Cc2ccccc2-c2nc(CCl)[nH]c(=O)c21
6. C=CCN1C(=O)C(Cc2ccc(OCC)cc2)SC1=Nc1ccc(C(=O)O)cc1 (stereo not given)
7. COc1cccc(OCc2cc(/C=N/NC(=O)c3nc(Cl)c(Cl)c(N)c3Cl)ccc2OC)c1
8. CCn1ccnc1CN1CCCC(C(=O)c2ccc3c4c(cccc24)CC3)C1 (stereo not given)

Given back:
1: -14.2; 2: 4; 3: -9.5; 4: 21.3; 5: 9; 6: 7.8; 7: -21.4; 8: 19.1

Can you give me inhibition for all of these, one by one?
1. O=C(NCC(=O)N(Cc1cccs1)C(C(=O)NC1CCCCC1)c1ccco1)c1cccs1 (stereo not given)
2. CCOC(=O)N1CCN(C(=O)Cc2ccc(-n3c(=S)[nH]c4ccccc4c3=O)cc2)CC1
3. Cc1cc([N+](=O)[O-])c(NC2CCCCC2)c([N+](=O)[O-])c1
4. CN(C)CCNC(=O)/C(=C/c1cccc([N+](=O)[O-])c1)NC(=O)c1ccccc1
5. CNC(=O)c1sc(Nc2ccc(OCc3ccccc3)cc2)nc1C

Given back:
1. -5.1
2. 46.3
3. -28.1
4. 11.7
5. 6.9

Can you give me inhibition for all of these, one by one?
1. Cc1ncc(CO)c(/C=N/NC(=O)c2cccc(S(=O)(=O)N3CCCC3)c2)c1O
2. Cc1cccc(NC(=O)c2cccc(S(=O)(=O)N3CCCC3)c2)n1
3. FC(F)(F)c1cccc(Nc2ncnc3ccccc23)c1

Given back:
1. 52.7
2. 2.6
3. 11.1

Can you give me inhibition for all of these, one by one?
1. CCCCn1c(N)c(N(CC)C(=O)c2ccccc2C(F)(F)F)c(=O)[nH]c1=O
2. Cc1ccc(C(=O)N/C(=C/c2ccc(-c3cccc([N+](=O)[O-])c3)o2)C(=O)NCCCN(C)C)cc1

Given back:
1. -4.3
2. 57
